The measurements presented in this section are drawn from ChEMBL document CHEMBL3286187.

tested on: Mycobacterium tuberculosis; assay: Antitubercular activity against Mycobacterium tuberculosis H37Rv ATCC 27294 after 5 to 8 days by BACTEC 12B method; assay type: functional
readoutName: MIC (µg/mL)
Numbers only, in µg/mL.

Look over these answered cases.
[
  {
    "smilesNotation": "C/C(=N\\n1c(/N=C/c2ccc(C)cc2)c(C#N)c(-c2ccc([N+](=O)[O-])cc2)c(C#N)c1=O)c1nc2ccccc2[nH]1",
    "readoutName": "MIC",
    "valueUnit": "µg/mL",
    "reportedResult": 6.28
  },
  {
    "smilesNotation": "C/C(=N\\n1c(/N=C/c2ccc(Cl)cc2)c(C#N)c(-c2ccc([N+](=O)[O-])cc2)c(C#N)c1=O)c1nc2ccccc2[nH]1",
    "readoutName": "MIC",
    "valueUnit": "µg/mL",
    "reportedResult": 1.79
  },
  {
    "smilesNotation": "C/C(=N\\n1c(/N=C/c2cccc(C)c2)c(C#N)c(-c2ccc([N+](=O)[O-])cc2)c(C#N)c1=O)c1nc2ccccc2[nH]1",
    "readoutName": "MIC",
    "valueUnit": "µg/mL",
    "reportedResult": 2.07
  },
  {
    "smilesNotation": "C/C(=N\\n1c(/N=C/c2ccccc2)c(C#N)c(-c2ccc([N+](=O)[O-])cc2)c(C#N)c1=O)c1nc2ccccc2[nH]1",
    "readoutName": "MIC",
    "valueUnit": "µg/mL",
    "reportedResult": 35.2
  }
]

I have 5 compounds here; please give me MIC for each one.
1. NNC(=O)c1ccncc1
2. C/C(=N\n1c(/N=C/c2cccc(O)c2)c(C#N)c(-c2ccc([N+](=O)[O-])cc2)c(C#N)c1=O)c1nc2ccccc2[nH]1
3. C/C(=N\n1c(/N=C/c2cccc([N+](=O)[O-])c2)c(C#N)c(-c2ccc([N+](=O)[O-])cc2)c(C#N)c1=O)c1nc2ccccc2[nH]1
4. C/C(=N\n1c(/N=C/c2cccc(Cl)c2)c(C#N)c(-c2ccc([N+](=O)[O-])cc2)c(C#N)c1=O)c1nc2ccccc2[nH]1
5. C/C(=N\n1c(/N=C/c2ccc(Br)cc2)c(C#N)c(-c2ccc([N+](=O)[O-])cc2)c(C#N)c1=O)c1nc2ccccc2[nH]1

Found:
1: 0.24; 2: 30.2; 3: 28.3; 4: 0.85; 5: 13.8

----------
system: Mycobacterium tuberculosis; experiment: Antitubercular activity against Mycobacterium tuberculosis H37Rv ATCC 27294 after 5 to 8 days by BACTEC 12B method; type: functional
I'd appreciate it if you could supply log10 of MIC values for the items below.
In our notation, the value equals log10 of MIC in µg/mL.

Look over these answered cases.
[
  {
    "smilesNotation": "C/C(=N\\n1c(/N=C/c2ccccc2O)c(C#N)c(-c2ccc([N+](=O)[O-])cc2)c(C#N)c1=O)c1nc2ccccc2[nH]1",
    "testedSystem": "Mycobacterium tuberculosis",
    "log10 of MIC": 1.50
  },
  {
    "smilesNotation": "C/C(=N\\n1c(/N=C/c2ccc(F)cc2)c(C#N)c(-c2ccc([N+](=O)[O-])cc2)c(C#N)c1=O)c1nc2ccccc2[nH]1",
    "testedSystem": "Mycobacterium tuberculosis",
    "log10 of MIC": 1.43
  },
  {
    "smilesNotation": "COc1cccc(/C=N/c2c(C#N)c(-c3ccc([N+](=O)[O-])cc3)c(C#N)c(=O)n2/N=C(\\C)c2nc3ccccc3[nH]2)c1",
    "testedSystem": "Mycobacterium tuberculosis",
    "log10 of MIC": 1.26
  },
  {
    "smilesNotation": "C/C(=N\\n1c(/N=C/c2cccc(Br)c2)c(C#N)c(-c2ccc([N+](=O)[O-])cc2)c(C#N)c1=O)c1nc2ccccc2[nH]1",
    "testedSystem": "Mycobacterium tuberculosis",
    "log10 of MIC": 1.01
  },
  {
    "smilesNotation": "C/C(=N\\n1c(/N=C/c2ccccc2Cl)c(C#N)c(-c2ccc([N+](=O)[O-])cc2)c(C#N)c1=O)c1nc2ccccc2[nH]1",
    "testedSystem": "Mycobacterium tuberculosis",
    "log10 of MIC": 0.42
  }
]

I have 2 molecules here; please give me log10 of MIC for each one.
1. COc1ccc(/C=N/c2c(C#N)c(-c3ccc([N+](=O)[O-])cc3)c(C#N)c(=O)n2/N=C(\C)c2nc3ccccc3[nH]2)cc1
2. C/C(=N\n1c(/N=C/c2ccccc2C)c(C#N)c(-c2ccc([N+](=O)[O-])cc2)c(C#N)c1=O)c1nc2ccccc2[nH]1

Found:
[1.37, 0.96]
